- Tested on: A549/ATCC NSCLC
- Measurement notes: NCI-60 one-dose screen, 48 h
- Run parameters: 10 µM unless noted
The panel holds about 83,000 compounds, 20% with a hit somewhere; the sample as a whole holds those more often. Active and inactive are the calls of the source. The calls were made as follows: active = growth percent below 10; inactive = the rest.
Respond only with the outcome that fits, drawn from active, inactive

Exam item: Recorded call for `C[C@@H]1[C@H]2C[C@@H](C[C@H]1NCc1nc3ccccc3n1C1CCCCCC1)C2(C)C` ?
Marked response: inactive

Exam item: Recorded test call requested for CN1C(=O)C2(C(C#N)=C(c3ccc(Cl)cc3)Nc3c2c(-c2ccccc2)nn3-c2ccccc2)c2ccccc21 (stereo unspecified)
Marked response: inactive

Exam item: Test call, this compound: `COc1ccc2[nH]c(O)c(N=Nc3nc(-c4ccc(C#N)cc4)cs3)c2c1`
Marked response: inactive

Exam item: Dear all, I need the recorded test outcome for `O=C(N/N=C/c1ccc(Cl)o1)c1[nH]c2ccc(Br)cc2c1-c1ccccc1` , thank you.
Marked response: active

Exam item: Hi, sorry to bother you, what did the test record for `CS(=O)(=O)Nc1cncc(-c2ccc3ncnc(NCc4ccccc4)c3c2)c1` ?
Marked response: inactive

Exam item: Which result was noted for this compound in the test: `O=C(CSc1nnc(-c2ccc(-c3nc4ccccc4[nH]3)cc2)o1)Nc1ccc(Cl)cc1`
Marked response: active

The reported measurements were obtained from PubChem BioAssay (NCI).
